Activity of mutant relative to wild-type Gaussia luciferase without the signal peptide values by entry
# assayProcedure: Luminescence activity assay of purified Gaussia luciferase mutants on fluoro-coelenterazine
# Assay type: biochemical
# Set-up: key: ratio of mutant luminescence intensity to wild-type Gaussia luciferase
# testContext: Substrate f-CTZ (Table 16)
readoutType: Activity of mutant relative to wild-type Gaussia luciferase without the signal peptide

molecule	testResult
F26R N27D V29E A30G V31I A32D S33N A36N T37A L40R: Gaussia luciferase mutant (protein, SIGNAL (1)..(17), Gaussia luciferase mutant) MGVKVLFALICIAVAEAKPTENNEDRDIEGIDNNFNATDRDADRGKLPGKKLPLEVLKEMEANARKAGCTRGCLICLSHIKCTPKMKKFIPGRCHTYEGDKESAQGGIGEAIVDIPEIPGFKDLEPMEQFIAQVDLCVDCTTGCLKGLANVQCSDLLKKWLPQRCATFASKIQGQVDKIKGAGGD	0.067
P84K E102A: Gaussia luciferase mutant (protein, SIGNAL (1)..(17), Gaussia luciferase mutant) MGVKVLFALICIAVAEAKPTENNEDFNIVAVASNFATTDLDADRGKLPGKKLPLEVLKEMEANARKAGCTRGCLICLSHIKCTKKMKKFIPGRCHTYEGDKASAQGGIGEAIVDIPEIPGFKDLEPMEQFIAQVDLCVDCTTGCLKGLANVQCSDLLKKWLPQRCATFASKIQGQVDKIKGAGGD	0.009
F26L V29A V31I A32D S33R A36N T37E LA0P: Gaussia luciferase mutant (protein) MGVKVLFALICIAVAEAKPTENNEDLNIAAIDRNFNETDLDADRGKLPGKKLPLEVLKEMEANARKAGCTRGCLICLSHIKCTPKMKKFIPGRCHTYEGDKESAQGGIGEAIVDIPEIPGFKDLEPMEQFIAQVDLCVDCTTGCLKGLANVQCSDLLKKWLPQRCATFASKIQGQVDKIKGAGGD	0.402
K66R H79K P84K E102D S103I A104G L124M V138E: Gaussia luciferase mutant (protein, SIGNAL (1)..(17), Gaussia luciferase mutant) MGVKVLFALICIAVAEAKPTENNEDFNIVAVASNFATTDLDADRGKLPGKKLPLEVLKEMEANARRAGCTRGCLICLSKIKCTKKMKKFIPGRCHTYEGDKDIGQGGIGEAIVDIPEIPGFKDMEPMEQFIAQVDLCEDCTTGCLKGLANVQCSDLLKKWLPQRCATFASKIQGQVDKIKGAGGD	0.857
F26Y N27Y V29A A30G S33V A36V T37S L40G: Gaussia luciferase mutant (protein, SIGNAL (1)..(17), Gaussia luciferase mutant) MGVKVLFALICIAVAEAKPTENNEDYYIAGVAVNFVSTDGDADRGKLPGKKLPLEVLKEMEANARKAGCTRGCLICLSHIKCTPKMKKFIPGRCHTYEGDKESAQGGIGEAIVDIPEIPGFKDLEPMEQFIAQVDLCVDCTTGCLKGLANVQCSDLLKKWLPQRCATFASKIQGQVDKIKGAGGD	0.192
